tgt: CPS1 (Homo sapiens)
Construct: The full length, human CPS1 gene was cloned into pFastBac HTA; His6 (from the pFastBac HTA vector); made in house; host or cells: SF21 insect cells (baculovirus, Bac-to-bac)
Sequence (P31327 39-1500): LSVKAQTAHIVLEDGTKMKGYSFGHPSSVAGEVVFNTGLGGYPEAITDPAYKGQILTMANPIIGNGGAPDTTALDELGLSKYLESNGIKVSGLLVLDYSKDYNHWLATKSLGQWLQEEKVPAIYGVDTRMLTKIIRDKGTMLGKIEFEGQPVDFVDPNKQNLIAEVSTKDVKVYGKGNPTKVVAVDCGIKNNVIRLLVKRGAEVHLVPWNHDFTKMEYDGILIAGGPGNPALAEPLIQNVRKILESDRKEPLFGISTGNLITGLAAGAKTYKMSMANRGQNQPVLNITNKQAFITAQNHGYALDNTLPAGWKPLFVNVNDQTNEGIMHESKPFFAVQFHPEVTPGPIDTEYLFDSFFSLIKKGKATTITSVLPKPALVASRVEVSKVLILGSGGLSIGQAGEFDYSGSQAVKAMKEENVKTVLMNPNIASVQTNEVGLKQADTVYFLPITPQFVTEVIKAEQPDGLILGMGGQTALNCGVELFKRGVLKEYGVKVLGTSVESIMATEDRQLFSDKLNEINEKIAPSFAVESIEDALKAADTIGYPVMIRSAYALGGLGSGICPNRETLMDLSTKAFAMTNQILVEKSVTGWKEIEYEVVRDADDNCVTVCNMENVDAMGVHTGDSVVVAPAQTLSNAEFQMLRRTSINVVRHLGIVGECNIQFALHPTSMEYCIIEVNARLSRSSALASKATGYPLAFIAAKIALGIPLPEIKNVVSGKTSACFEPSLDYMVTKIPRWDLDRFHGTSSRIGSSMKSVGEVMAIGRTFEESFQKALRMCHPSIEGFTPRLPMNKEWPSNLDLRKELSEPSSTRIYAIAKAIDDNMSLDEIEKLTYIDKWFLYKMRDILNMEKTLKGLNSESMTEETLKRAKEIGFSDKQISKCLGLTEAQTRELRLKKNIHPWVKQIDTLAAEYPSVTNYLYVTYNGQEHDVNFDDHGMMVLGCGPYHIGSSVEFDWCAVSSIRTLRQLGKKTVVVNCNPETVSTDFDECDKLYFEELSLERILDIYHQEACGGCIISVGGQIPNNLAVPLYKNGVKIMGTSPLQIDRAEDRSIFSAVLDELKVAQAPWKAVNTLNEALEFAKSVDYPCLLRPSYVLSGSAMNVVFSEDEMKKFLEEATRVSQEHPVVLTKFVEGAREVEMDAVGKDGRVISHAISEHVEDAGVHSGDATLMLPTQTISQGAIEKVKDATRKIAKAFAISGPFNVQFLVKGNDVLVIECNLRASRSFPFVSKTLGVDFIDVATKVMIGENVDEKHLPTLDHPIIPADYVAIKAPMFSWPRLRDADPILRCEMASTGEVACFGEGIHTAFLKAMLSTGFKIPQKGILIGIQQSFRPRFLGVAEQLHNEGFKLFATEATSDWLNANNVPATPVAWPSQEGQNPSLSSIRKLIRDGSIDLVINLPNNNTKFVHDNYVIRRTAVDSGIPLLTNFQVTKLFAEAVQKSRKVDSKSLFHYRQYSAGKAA
measurement-description: ADP-Glo endpoint assay measuring the ATPase activity of CPS1
Format: biochemical
study-conditions: geometric mean of a minimum of two values; 50 nM CPS1, 10 μM ATP, 0.2 mM NAG, 60 min at room temperature; read-out: ADPGlo IC50

{"chemical-string": "COc1ccc(C(=O)N2C[C@@H](C)N(C(=O)c3ccc(OC)cc3Cl)[C@H](C)C2)c(F)c1", "IC50": "> 66.7 µM"}
{"chemical-string": "COc1ccc(OC)c2[nH]c(C(=O)N3C[C@@H](C)N(C(=O)Cc4cc5ccccc5[nH]4)[C@H](C)C3)cc12", "IC50": "> 66.7 µM"}
{"chemical-string": "COc1ccc(C(=O)N2C[C@@H](C)N(C(=O)c3ccc(NC(C)=O)cc3F)[C@H](C)C2)c(F)c1", "IC50": "> 66.7 µM"}
